I'd appreciate it if you could supply TBIL values for the items below.
assay: Serum biochemistry assay in Huh7 xenograft mice; format: in vivo, NOD-SCID mice; settings: serum, 30 mg/kg i.p., twice a week
One number for each entry, in mg/dL.

Field: example entries. Status: answers known.
CCC[C@H]1CC[C@H](c2ccc(C(=O)NC[C@@H]3[C@@H](O)[C@@H](O)[C@H]4[C@H](O)CCCN43)cc2)CC1 = 0.9
CCCCCC[C@H]1CC[C@H](c2ccc(NC(=S)NC[C@@H]3[C@@H](O)[C@@H](O)[C@H]4[C@H](O)CCCN43)cc2)CC1 = 0.64
CCC[C@H]1CC[C@H](c2ccc(NC(=S)NC[C@@H]3[C@@H](O)[C@@H](O)[C@H]4[C@H](O)CCCN43)cc2)CC1 = 0.55

Give TBIL for the following molecule: CNC(=O)c1cc(Oc2ccc(NC(=O)Nc3ccc(Cl)c(C(F)(F)F)c3)cc2)ccn1 [Sorafenib, sorafenib, reference compound]
0.73
